# Test system: human breast cancer MCF-7
# experiment_summary: Antiproliferative activity, SRB assay, 72 h
# Type: cell-based
# protocol_conditions: IC50 MCF-10A / IC50 MCF-7
Here, each record is paired with measured SI data.

Worked examples follow.
>>> value("C=C(C)[C@@H]1CC[C@]2(CO)CC[C@]3(C)C(CCC4[C@@]5(C)CC[C@H](OC(=O)CC(C)(C)CC(=O)O)C(C)(C)C5CC[C@]43C)C12 (some centres unmarked)")
2.60
>>> value("C=C(C)[C@@H]1CC[C@]2(COC(C)=O)CC[C@]3(C)C(CCC4[C@@]5(C)CC[C@H](OC(=O)CC(C)(C)CC(=O)O)C(C)(C)C5CC[C@]43C)C12 (some centres unmarked)")
4.73
>>> value("C=C(C)[C@@H]1CC[C@]2(COC(=O)C#CC)CC[C@]3(C)C(CCC4[C@@]5(C)CC[C@H](OC(=O)CC(C)(C)C(=O)O)C(C)(C)C5CC[C@]43C)C12 (some centres unmarked)")
1.28
>>> value("C=C(C)[C@@H]1CC[C@]2(COC(=O)C#CC3CC3)CC[C@]3(C)C(CCC4[C@@]5(C)CC[C@H](OC(=O)CC(C)(C)CC(=O)O)C(C)(C)C5CC[C@]43C)C12 (some centres unmarked)")
2.60

Query compound follows.
Reported SI of C#CCCC(=O)OC[C@]12CC[C@@H](C(=C)C)C1C1CCC3[C@@]4(C)CC[C@H](OC(=O)CC(C)(C)C(=O)O)C(C)(C)C4CC[C@@]3(C)[C@]1(C)CC2 (some centres unmarked) : 2.75
